We begin with a simple list: items and their reported IC50.
tested target: Angiotensin-converting enzyme (Oryctolagus cuniculus)
Sequence (P12822 whole entry): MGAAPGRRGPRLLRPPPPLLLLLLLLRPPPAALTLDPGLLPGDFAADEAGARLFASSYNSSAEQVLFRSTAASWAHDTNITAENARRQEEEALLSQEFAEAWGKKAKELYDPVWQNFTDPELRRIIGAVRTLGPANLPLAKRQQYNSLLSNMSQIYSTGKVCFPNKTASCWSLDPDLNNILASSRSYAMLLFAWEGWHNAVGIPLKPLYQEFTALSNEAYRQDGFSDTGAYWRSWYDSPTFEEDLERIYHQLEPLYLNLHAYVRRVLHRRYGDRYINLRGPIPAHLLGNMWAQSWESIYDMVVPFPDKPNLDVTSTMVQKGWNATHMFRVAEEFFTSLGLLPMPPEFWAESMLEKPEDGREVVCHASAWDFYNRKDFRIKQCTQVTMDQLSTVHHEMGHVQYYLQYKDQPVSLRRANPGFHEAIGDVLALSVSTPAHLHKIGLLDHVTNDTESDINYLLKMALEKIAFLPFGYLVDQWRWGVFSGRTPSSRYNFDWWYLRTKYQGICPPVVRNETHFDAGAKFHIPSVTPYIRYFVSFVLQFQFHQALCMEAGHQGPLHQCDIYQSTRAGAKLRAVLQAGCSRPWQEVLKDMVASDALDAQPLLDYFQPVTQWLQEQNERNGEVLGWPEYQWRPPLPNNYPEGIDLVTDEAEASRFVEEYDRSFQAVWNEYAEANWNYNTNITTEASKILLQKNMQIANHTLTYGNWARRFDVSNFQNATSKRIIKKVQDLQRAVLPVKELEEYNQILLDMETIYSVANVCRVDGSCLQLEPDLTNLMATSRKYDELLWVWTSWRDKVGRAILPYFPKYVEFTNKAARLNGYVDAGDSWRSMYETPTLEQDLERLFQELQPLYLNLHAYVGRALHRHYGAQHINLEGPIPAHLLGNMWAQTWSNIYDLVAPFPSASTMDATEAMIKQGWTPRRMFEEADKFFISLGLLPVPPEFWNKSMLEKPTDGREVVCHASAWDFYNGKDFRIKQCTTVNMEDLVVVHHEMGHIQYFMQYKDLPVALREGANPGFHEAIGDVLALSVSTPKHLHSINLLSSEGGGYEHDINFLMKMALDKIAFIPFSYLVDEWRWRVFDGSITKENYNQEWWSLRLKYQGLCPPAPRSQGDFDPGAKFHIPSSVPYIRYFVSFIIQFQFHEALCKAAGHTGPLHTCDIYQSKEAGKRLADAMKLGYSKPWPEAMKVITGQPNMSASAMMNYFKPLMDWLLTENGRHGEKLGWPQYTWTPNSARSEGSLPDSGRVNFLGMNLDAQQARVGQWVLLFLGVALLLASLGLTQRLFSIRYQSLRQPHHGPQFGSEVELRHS
test name: In vitro inhibitory activity against Angiotensin I converting enzyme (ACE) isolated from rabbit lung extract using hippuryl-L-histidyl-L-leucine (HHL) as the substrate
Give your result in nM as a bare value.

chemical structure | unit text | IC50
O=C(O)CN1C(=O)[C@@H](NC(=O)[C@@H](S)Cc2ccccc2)CCCC12CC2 | nM | 9.6
O=C(O)CN1C(=O)[C@@H](NC(=O)[C@@H](S)Cc2ccccc2)CCCC12CCC2 | nM | 29
CC1(C)CCC[C@H](NC(=O)[C@@H](S)Cc2ccccc2)C(=O)N1CC(=O)O | nM | 12
O=C(O)CN1C(=O)[C@@H](NC(=O)[C@@H](S)Cc2ccccc2)CCCC12CCCC2 | nM | 6

Prompt: Find the measured IC50 of C[C@H]1CCC[C@H](NC(=O)[C@@H](S)Cc2ccccc2)C(=O)N1CC(=O)O and report it.
Completion: 8.2

----------
tested target: Neprilysin (Rattus norvegicus, UniProt P07861)
Sequence (P07861 whole entry): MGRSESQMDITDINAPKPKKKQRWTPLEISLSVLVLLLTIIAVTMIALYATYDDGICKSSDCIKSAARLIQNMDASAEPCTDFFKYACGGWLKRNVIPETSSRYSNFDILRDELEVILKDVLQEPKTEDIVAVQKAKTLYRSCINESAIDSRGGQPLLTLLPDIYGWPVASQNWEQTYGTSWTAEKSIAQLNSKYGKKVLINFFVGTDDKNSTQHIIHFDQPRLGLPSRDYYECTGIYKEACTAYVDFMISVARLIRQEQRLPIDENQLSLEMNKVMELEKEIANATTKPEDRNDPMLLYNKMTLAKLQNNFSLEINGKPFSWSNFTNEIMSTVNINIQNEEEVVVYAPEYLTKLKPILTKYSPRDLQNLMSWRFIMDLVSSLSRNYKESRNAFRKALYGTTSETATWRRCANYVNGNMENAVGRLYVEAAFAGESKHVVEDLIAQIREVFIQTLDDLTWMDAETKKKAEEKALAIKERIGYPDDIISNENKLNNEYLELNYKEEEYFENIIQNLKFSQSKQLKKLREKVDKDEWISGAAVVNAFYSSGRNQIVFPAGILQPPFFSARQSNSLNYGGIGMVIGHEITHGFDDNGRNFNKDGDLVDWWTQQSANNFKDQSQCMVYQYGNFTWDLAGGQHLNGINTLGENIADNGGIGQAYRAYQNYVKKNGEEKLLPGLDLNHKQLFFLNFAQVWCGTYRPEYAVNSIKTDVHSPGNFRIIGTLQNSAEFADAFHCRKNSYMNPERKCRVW
test name: In vitro inhibitory activity against purified rat kidney neutral endopeptidase (NEP) using a fluorometric assay with dansyl-Gly-Phe-Arg as the substrate
property label: IC50
Lab note: write values as number then unit, every time.

Prompt: Find the measured IC50 of O=C(O)CN1C(=O)[C@@H](NC(=O)[C@@H](S)Cc2ccccc2)CCCC12CCC2 and report it.
Completion: 641 nM
